target: UniProt Q8ILY1; assay: Fluorescence-based high-throughput DNA polymerase assay (molecular beacon), primary screen and dose-response; format: biochemical; settings: DRC-1; 180'; concentration 2.5
Catalogue of % inhibition apPOL 180' values
Reply numerically in %, unit not repeated.

Cc1cc(C)cc(-n2nc3c(c2NC(=O)c2ccco2)CSC3)c1 [KU0055926]
-5.803

Asked: Consider the compound CSC(C)C(=O)C=CN(C)C (centres unmarked) [Molecule 71, CSC(C(=O)C=CN(C)C)C] and give its recorded % inhibition apPOL 180'.
Given back: -9.552

Asked: Consider the compound CCOc1cccc2cc(C(=O)Nc3nnc(-c4ccno4)o3)oc12 [Molecule 28, CCOc1cccc2c1oc(c2)C(=O)Nc1nnc(o1)c1ccno1] and give its recorded % inhibition apPOL 180'.
Given back: -1.99

Asked: Consider the compound O=C(O)c1ccc(-c2nc3cc(-c4ccc5nc(-c6ccc(C(=O)O)cc6)[nH]c5c4)ccc3[nH]2)cc1 [Molecule 1] and give its recorded % inhibition apPOL 180'.
Given back: 2.544

Asked: Consider the compound O=C(O)CC1SC(c2ccc3c(c2)OCO3)=NC1=O (centres unmarked) [Molecule 69, OC(=O)CC1SC(=NC1=O)c1ccc2c(c1)OCO2] and give its recorded % inhibition apPOL 180'.
Given back: -4.62

Asked: Consider the compound O=c1cc(-c2ccccc2Cl)oc2c(NS(=O)(=O)c3cc(Cl)cc(Cl)c3O)ccc(O)c12 [KU0104277] and give its recorded % inhibition apPOL 180'.
Given back: -13.4888

Asked: Consider the compound O=C(c1c[nH]c2ncccc12)N1CCCCCC1 [Molecule 51, O=C(c1c[nH]c2c1cccn2)N1CCCCCC1] and give its recorded % inhibition apPOL 180'.
Given back: -0.2836

Asked: Consider the compound Cc1ccc(C(=O)/C=C/C=C/C=C/N(C)C)o1 [Molecule 96, CN(/C=C/C=C/C=C/C(=O)c1ccc(o1)C)C] and give its recorded % inhibition apPOL 180'.
Given back: 1.481

---

target: P. falciparum apicoplast DNA polymerase (Pf-apPOL) (Plasmodium falciparum); assay: Fluorescence-based high-throughput DNA polymerase assay (molecular beacon), primary screen and dose-response; format: biochemical; details: DRC-2; read at 180'; concentration 80
Assign class by % inhibition apPOL 180' 80: not lower than 60% means fulfilled; lower than 60% means not fulfilled.

Please review the entries below; each comes with its answer.
Cn1nc(-c2nc(-c3ccccc3)no2)c2c1CCN(C(=O)Cc1cccs1)C2
not fulfilled
Cc1cc2[nH]c(C(=O)Nc3ccc(F)cc3)c(CN3CCOCC3)c2s1
fulfilled
Cc1nc(C)c2c(n1)N(CC1CCCCC1)C(=O)CC2
not fulfilled
COc1ccc(/C=C/c2cc(C(=O)O)c3ccccc3n2)cc1
not fulfilled
O=C(c1ccccc1)N1CCc2c(nc3cc(-c4ccccc4)[nH]n3c2=O)C1
not fulfilled

Here is another molecule to look at.
Asked: State whether the measured % inhibition apPOL 180' 80 reaches 60%, counting equality as reaching it, for CC(C)CC(C(=O)O)N1C(=O)C2C3C=CC(C2C1=O)C1C(=O)N(C(CC(C)C)C(=O)O)C(=O)C31 (centres unmarked)
Given back: not fulfilled

---

biological target: P. falciparum apicoplast DNA polymerase (Pf-apPOL) (Plasmodium falciparum, UniProt Q8ILY1); assay: Fluorescence-based high-throughput DNA polymerase assay (molecular beacon), primary screen and dose-response; assay type: biochemical; conditions: DRC-2, 40', concentration 2.5;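 on % inhibition Apol 40': compound concentration given in µM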
Sequence (Q8ILY1 entry or part of it): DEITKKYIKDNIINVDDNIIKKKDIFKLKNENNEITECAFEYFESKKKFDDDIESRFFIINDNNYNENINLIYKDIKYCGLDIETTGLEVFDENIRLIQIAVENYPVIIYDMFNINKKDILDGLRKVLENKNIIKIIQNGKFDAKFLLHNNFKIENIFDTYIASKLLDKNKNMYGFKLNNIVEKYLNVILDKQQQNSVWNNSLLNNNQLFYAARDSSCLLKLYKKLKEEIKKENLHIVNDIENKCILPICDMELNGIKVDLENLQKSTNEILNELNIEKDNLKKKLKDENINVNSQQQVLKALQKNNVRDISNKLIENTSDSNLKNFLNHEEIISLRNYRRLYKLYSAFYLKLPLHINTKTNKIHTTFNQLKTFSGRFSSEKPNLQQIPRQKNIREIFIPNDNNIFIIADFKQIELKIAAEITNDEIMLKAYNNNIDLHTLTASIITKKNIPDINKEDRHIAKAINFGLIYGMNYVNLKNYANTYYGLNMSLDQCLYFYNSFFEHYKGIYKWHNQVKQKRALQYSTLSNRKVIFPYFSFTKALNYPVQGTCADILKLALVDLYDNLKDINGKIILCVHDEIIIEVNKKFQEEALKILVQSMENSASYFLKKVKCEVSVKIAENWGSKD
Catalogue of % inhibition Apol 40' values
Reply numerically in %, unit not repeated.

Check out these entries, answers already filled in.
COc1ccc(C(=O)Nc2cccc(-c3nc4ncccc4o3)c2)cc1[N+](=O)[O-]
0.929
O=c1cc(-c2ccccc2)oc2c(O)c(O)ccc12
10
O=C(Nc1nnc(-c2ccno2)o1)c1ccc2ncsc2c1
6.5
O=C(Nc1nnc(-c2cccs2)o1)c1ccc([N+](=O)[O-])o1
1.79
O=C(c1c[nH]c2ncccc12)N1CCCCCC1 [Molecule 51, O=C(c1c[nH]c2c1cccn2)N1CCCCCC1]
4

Asked: Consider the molecule Cn1nc(C(=O)N2CCc3c(nc4cc(-c5ccccc5)[nH]n4c3=O)C2)c2ccccc21 and give its recorded % inhibition Apol 40'.
Given back: 4

Asked: Consider the molecule CO/N=C(\C(=O)N[C@@H]1C(=O)N2C(C(=O)[O-])=C(CSc3nc(=O)c([O-])nn3C)CSC12)c1csc(N)n1.[Na+].[Na+] (stereo partly shown) and give its recorded % inhibition Apol 40'.
Given back: -6
